B1: TSN (parent)
chain: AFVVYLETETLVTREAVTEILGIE

# Variants of: B1
# test name: protein stability index of a GFP-peptide fusion (GPS, HEK-293T) (PSI 1-6); higher = more stable;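 note: lentivirally expressed fusions sorted by FACS into six bins by GFP to DsRed ratio, PSI derived from sequencing read proportions per bin multiplied by bin number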
# particulars: c terminus: a fixed tail appended
outcome measure: protein stability index
Give bare numbers.

Quick one: give me protein stability index for each item below, same order please.
1. Y5P
2. I23N
3. E19F
4. L11A
5. R14Y
6. V12Q
7. R14K

a:
2.87
3.34
2.17
2.69
2.01
1.94
4.19

Hi, could you look up protein stability index for each item in my list?
1. V3N
2. L21G

a:
1: 2.37; 2: 2.44

For the 7 variants below, give their protein stability index values.
1. V17G
2. A1Q
3. A1I
4. V3H
5. E9C
6. A16M
7. A16N

a:
1. 2.21
2. 2.11
3. 3.49
4. 2.3
5. 2.38
6. 2.01
7. 1.96

# batch: return protein stability index for each of the 8 variants below
1. G22K
2. E19R
3. I23F
4. Y5A
5. A16S
6. R14S
7. V17P
8. A1G

a:
[1.74, 3.43, 2.36, 2, 3.05, 1.54, 3.55, 3.71]
